- test summary: label from the status in PepcDB records
quantity measured: protein production

item_sequence=SSQWHHPRSGWGRRRDFSGRSSAKKKGGNHIPERWKDYLPVGQRMPGTRFIAFKVPLQKSFEKKLAPEECFSPLDLFNKIREQNEELGLIIDLTYTQRYYKPEDLPETVPYLKIFTVGHQVPDDETIFKFKHAVNGFLKENKDNDKLIGVHCTHGLNRTGYLICIYLIDVEGVRPDDAIELFNRCRGHCLERQNYIEDLQNGPIRKNWNSSVPRSSDFEDSAHLMQPVHNKPVKQGPRYNLHQIQGHSAPRHFHTQTQSLQQSVRKFSENPHVYQRHHLPPPGPPGEDYSHRRYSWNVKPNASRAAQDRRRWYPYNYSRLSYPACWEWTQ test_value="not failed"
item_sequence=MRKLTALFVASTLALGAANLAHAADTTTAAPADAKPMMHHKGKFGPHQDMMFKDLNLTDAQKQQIREIMKGQRDQMKRPPLEERRAMHDIIASDTFDKVKAEAQIAKMEEQRKANMLAHMETQNKIYNILTPEQKKQFNANFEKRLTERPAAKGKMPATAELEHHHHHH test_value="not failed"

* * *

- test summary: label from the status in PepcDB records
quantity measured: protein production

item_sequence=MQKEKAPIGLYFLLIAVMASWGFNVTMTKVLVSYFPTVTMTSFRIFTAAITVIIILFITKKLRLPTKREFGLIFLASIFNIVIHHFFLSNGLKLTTGTNAGLILGSAPIVVAIFSVVFLRERIGAWRALGFLAGIFGVSLVVLSNGTGISGISLGDIDIFIAMASQAFSFIIIKKLAGSMDTGLMTGYMLFLGSVMLFALSRFMEPGGVSELVAVHSWKLWLLFVVSAVVATAFGNFVYNYAVGKIGPSRSAIFMNFNPLFSLIGALLFLGEAIKIPQLVGFVFIIIGVLLGSGALMDLIYERKKTKVRDPEKLLEKEV test_value=failed
item_sequence=MPLIPAVPGLADRRMYVFLLLLTLGSGMSFQGWNTLYTNFAVHGAGLSGAENGLVQSIREVPGLLTFGVIPLLLLLREHRLAALAVLVTGVGVMTAGLLPTLWGVVATTLVMSFGFHYFEAVNQSLILQYFDVRTAPLVMGRLRGLAAGGNLVMGALVYVLADLFAFSTLFCIMGAFATVAGAWALTRDPSDPARPAQRRSMVLRRRYWLFYLLTILAGARRQIFTVFSVFLLVEHFGYGVREVALLFIVNNAVNWFLNPLIGRAVNRFGEQHLLTVEYSVLVLVFLGYTVTDSPLVAAFLYVVDHIFFNFAIAIRTFFQKIADPADIAPSMAMSVAINHIAAVVMPVCGGMLWMLDYRIPFYVGAGLAVASLLATQRIGAELRLQGVKPC test_value=failed

* * *

- test summary: label from the status in PepcDB records
quantity measured: protein production

item_sequence=MQWDPGGATESRSKLYIYLRFLRIEQVFFSLPMAYMGAFLAIREIPPIQVLILMFFSLFFLRTAGMTNDNLADREIDAMNPRTKSRPLVTGKITVREAKLLITISLIGFFITAYLINLYALIFAPIVALIVMSYPYMKRYTAFANYHLASIQGLAVFSGAVASLGLYAKSFTQLVTGIPWLFVISTVFWAVGFDLYNHIPDADFDKKMGLHSFAVLLGDRALMFAGLNQLISVLLALFGDIQFNLGIIAYIATILHGLIMGYAYYSATRGNFGRAFYYNIYSSIVLGIGIIIDIIV test_value=failed
item_sequence=MEYYFTAQKLAVGYDNRPLIENIDFSLKRGEILTLIGPNGAGKSTILKSIARQLSLVSGTIYLDKSDVVTMNGNEFAKKMAVVLTDKLKTELMTCYDVVATGRYPYTGRFGVLSDEDKKAVDEAMELVNVSQIKDKDFTKISDGQRQRVMLSRAICQQPEIIVLDEPTSYLDIKYKLEFLSILQRLKRQKNLTVIMSLHELDMAKRVSDHILCIDGRYVDRYGTPEEVFTDQYVSGLFGITAGSFDETGEDLELEKPDGSARIFVIAGGGLGRKSFRSLQRKGIPFATGIIYENDLDYPAAKALSAEIVSARSFEPVDDALIEKAKELIDACEGVICDRTEFGTYEQFNSRLYEYAVSTGKIIKIPFLEEQLAQL test_value=failed
